ASSAY TEXT: solvent given as SMILES
TEST CONTEXT: in CS(C)=O
READOUT KIND: emission maximum (nm)

>  <SMILES ENTRY>
Cn1c(/C=C/c2ccc(/C=C/c3nc4ccccc4[nH]3)cc2)[n+](C)c2ccccc21

>  <emission maximum [nm]>
584

$$$$
>  <SMILES ENTRY>
Cc1cc(O)c(C(C)C)cc1/N=C/c1ccc(O)cc1

>  <emission maximum [nm]>
415

$$$$

a. Cc1ccc(/C=N/c2cc(C(C)C)c(O)cc2C)cc1
b. COc1cc(OC)cc(C2=C3C(C)=C(I)C(/C=C/c4c[nH]c5ccc([N+](=O)[O-])cc45)=[N+]3[B-](F)(F)n3c(/C=C/c4c[nH]c5ccc([N+](=O)[O-])cc45)c(I)c(C)c32)c1
Query: Two entries are listed, a and b . Which one carries the higher emission maximum? Bench note: the answer is the label of the chosen record.
Response: b
(b: 748 nm, a: 417 nm)
